# Test system: K562
# Procedure summary: Ability to induce cells in S phase
# Format: functional, Homo sapiens
# Design: concentration or dose not given beside the values
I'd appreciate it if you could supply Activity values for the items below.
Numbers only, in %.

Before answering, review these 2 worked examples.
Compound structure string	Test value
COc1cc(O)c2c(O)cc(-c3cccc(CCl)c3)nc2c1	51
COc1cc(O)c2c(O)cc(Cc3ccccc3)nc2c1	50

Quick batch: Activity for everything below.
1. COc1cc(O)c2c(O)cc(-c3cccc(Br)c3)nc2c1
2. CC(=O)O[C@H]1C(=O)[C@@]2(C)[C@H]([C@H](OC(=O)c3ccccc3)[C@]3(O)C[C@H](OC(=O)[C@H](O)[C@@H](NC(=O)c4ccccc4)c4ccccc4)C(C)=C1C3(C)C)[C@]1(OC(C)=O)CO[C@@H]1C[C@@H]2O
3. COc1cc2nc(-c3ccccc3)cc(O)c2c(O)c1OC
4. COc1cc(O)c2c(O)cc(-c3cccc(I)c3)nc2c1
5. COc1cc(O)c2c(O)cc(-c3cccc(F)c3)nc2c1
6. COc1cc2nc(-c3ccccc3)cc(O)c2c(OC)c1OC

[37, 18, 45, 50, 30, 48]

Take each entry in turn and give its Activity.
1. COc1cc(O)c2c(O)cc(-c3cccnc3)nc2c1
2. COc1cc(O)c2c(O)cc(-c3cccc(C(F)(F)F)c3)nc2c1
3. COc1cc(O)c2c(O)cc(-c3cccc(-c4ccccc4)c3)nc2c1
4. COc1cc(O)c2c(O)cc(-c3ccccc3F)nc2c1

[31, 38, 45, 37]

###

# System: K562
# Procedure summary: Ability to induce cells in G2/M phase
# Assay type: functional, Homo sapiens
# Set-up: concentration or dose not given beside the values
I'd be grateful if you could share measured Activity for these entries.
Answers are plain numbers, in %.

In the examples that follow, each entry is paired with its recorded Activity.
Compound structure string	Activity / %
COc1cc(O)c2c(O)cc(-c3ccccc3)nc2c1	66
COc1cc(O)c2c(O)cc(-c3cccc(F)c3)nc2c1	60
COc1cc(O)c2c(O)cc(-c3cccnc3)nc2c1	45
COc1cc(O)c2c(O)cc(Cc3ccccc3)nc2c1	9

Batch: Activity for all items listed.
1. COc1cc(O)c2c(O)cc(-c3cccc(Br)c3)nc2c1
2. COc1cccc(-c2cc(O)c3c(O)cc(OC)cc3n2)c1
3. COc1cc2nc(-c3ccccc3)cc(O)c2c(O)c1OC
4. CCc1ccc(-c2cc(O)c3c(O)cc(OC)cc3n2)cc1
5. COc1cc(O)c2c(O)cc(-c3cccc(OC(F)(F)F)c3)nc2c1
6. COc1cc(O)c2c(O)cc(-c3cccc(C(F)(F)F)c3)nc2c1
7. COc1cc(O)c2c(O)cc(-c3ccc(OC)c(F)c3)nc2c1

1: 12; 2: 31; 3: 8; 4: 25; 5: 32; 6: 20; 7: 20

Could you tell me Activity for each of these molecules? They are listed below.
1. COc1cc(O)c2c(O)cc(-c3ccc(F)c(F)c3)nc2c1
2. CCn1c(-c2cccc(F)c2)cc(=O)c2c(O)cc(OC)cc21
3. CCn1c(-c2ccccc2)cc(=O)c2c(O)cc(OC)cc21
4. COc1cc(O)c2c(O)cc(-c3cccc(-c4ccccc4)c3)nc2c1
5. COc1cc(O)c2c(O)cc(-c3cc(F)cc(F)c3)nc2c1
6. CC[C@]1(O)C[C@@H]2CN(CCc3c([nH]c4ccccc34)[C@@](C(=O)OC)(c3cc4c(cc3OC)N(C)[C@H]3[C@@](O)(C(=O)OC)[C@H](OC(C)=O)[C@]5(CC)C=CCN6CC[C@]43[C@@H]65)C2)C1

1. 9
2. 19
3. 11
4. 9
5. 18
6. 37

###

# System: K562
# Procedure summary: Ability to induce cells in S phase
# Type: functional, Homo sapiens
# Set-up: concentration or dose not given beside the values
I'd appreciate it if you could supply Activity values for the items below.
Numbers only, in %.

Here are 2 compounds together with their reported answers.
                  compound_structure_string  test_value
0  COc1cc(O)c2c(O)cc(-c3cccc(OC(F)(F)F)c3)nc2c1          35
1     COc1cc(O)c2c(O)cc(-c3cccc(Cl)c3)nc2c1          35

Count: 3. Required value per item: Activity.
1. CCn1c(-c2cccc(F)c2)cc(=O)c2c(O)cc(OC)cc21
2. COc1cc(O)c2c(O)cc(-c3ccc(F)c(F)c3)nc2c1
3. COc1cccc(-c2cc(O)c3c(O)cc(OC)cc3n2)c1

28
69
41

###

Record form. Attribute: Activity. Fill in for each entry.
# Tested on: K562
# Procedure summary: Ability to induce cells in G2/M phase
# Format: functional, Homo sapiens
# Set-up: concentration or dose not given beside the values
One number for each entry, in %.

Below, 5 compounds whose answers are already recorded.
Compound structure string	Activity [%]
COc1cc(O)c2c(O)cc(-c3ccc(F)cc3)nc2c1	10
COc1cc(O)c2c(O)cc(-c3cccc(Cl)c3)nc2c1	32
Oc1cccc2nc(-c3cccc(F)c3)cc(O)c12	49
CC(=O)O[C@H]1C(=O)[C@@]2(C)[C@H]([C@H](OC(=O)c3ccccc3)[C@]3(O)C[C@H](OC(=O)[C@H](O)[C@@H](NC(=O)c4ccccc4)c4ccccc4)C(C)=C1C3(C)C)[C@]1(OC(C)=O)CO[C@@H]1C[C@@H]2O	71
COc1cc(O)c2c(O)cc(-c3cccc(CCl)c3)nc2c1	18

Parameters: items (list). Returns: Activity for each item.
1. COc1cc(O)c2c(O)cc(-c3cccc(I)c3)nc2c1
2. COc1cc(O)c2c(O)cc(-c3ccc(C)c(F)c3)nc2c1
3. Oc1cccc2nc(-c3ccccc3)cc(O)c12

6
18
21

Provide Activity for all items below, preserving their order.
1. COc1cc(O)c2c(O)cc(-c3ccccc3F)nc2c1
2. COc1cc2nc(-c3ccccc3)cc(O)c2c(OC)c1OC

[41, 5]

###

# Test system: K562
# Procedure summary: Ability to induce cells in S phase
# Format: functional, Homo sapiens
# Set-up: concentration or dose not given beside the values
Parameter: Activity (%)
Numbers only, in %.

Compound structure string	Parameter	Value units	Test value
CCn1c(-c2ccccc2)cc(=O)c2c(O)cc(OC)cc21	Activity	%	46
COc1cc(O)c2c(O)cc(-c3ccc(OC)c(F)c3)nc2c1	Activity	%	53
Oc1cccc2nc(-c3cccc(F)c3)cc(O)c12	Activity	%	33
COc1cc(O)c2c(O)cc(-c3cc(F)cc(F)c3)nc2c1	Activity	%	40

Dear colleague, could you please provide Activity for the molecules listed below?
1. CC[C@]1(O)C[C@@H]2CN(CCc3c([nH]c4ccccc34)[C@@](C(=O)OC)(c3cc4c(cc3OC)N(C)[C@H]3[C@@](O)(C(=O)OC)[C@H](OC(C)=O)[C@]5(CC)C=CCN6CC[C@]43[C@@H]65)C2)C1
2. COc1cc(O)c2c(O)cc(-c3ccc(F)cc3)nc2c1
3. COc1cc(O)c2c(O)cc(-c3ccc(C)c(F)c3)nc2c1
4. Oc1cccc2nc(-c3ccccc3)cc(O)c12
5. CCc1ccc(-c2cc(O)c3c(O)cc(OC)cc3n2)cc1

1: 30; 2: 36; 3: 54; 4: 52; 5: 48

// query Activity value for entry COc1cc(O)c2c(O)cc(-c3ccccc3)nc2c1
26

Sourced from ChEMBL document CHEMBL1138769
